Consider the following compounds; for each one, report its collision cross section in nitrogen.
PROCEDURE_SUMMARY: collision cross section in nitrogen (drift tube, single-field); higher = larger gas-phase ion size;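 further: chemical standards at 10 µM analysed by drift tube IMS-QTOF MS in about 3.95 torr nitrogen, mean of duplicate injections differing ≤1%, mass error below 10 ppm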
MEASUREMENT_CONDITIONS: ion type: [M-H]; ion source: ESI; ion mode: Negative
Structures can show the parent of a compound that is named as a salt.
One number for each entry, in Å².

[
  {
    "COMPOUND": "O=C(O)COc1ccc2ccccc2c1 [2-Naphthoxyacetic acid]",
    "VALUE_TYPE": "collision cross section in nitrogen",
    "QUANTITY_UNIT": "Å²",
    "RECORDED_VALUE": 151.2
  },
  {
    "COMPOUND": "CSc1nnc(C(C)(C)C)c(=O)n1N [Metribuzin]",
    "VALUE_TYPE": "collision cross section in nitrogen",
    "QUANTITY_UNIT": "Å²",
    "RECORDED_VALUE": 148.3
  },
  {
    "COMPOUND": "c1ccc(CNc2[nH]cnc3ncnc2-3)cc1 [N-Benzyl-1H-purin-6-amine]",
    "VALUE_TYPE": "collision cross section in nitrogen",
    "QUANTITY_UNIT": "Å²",
    "RECORDED_VALUE": 154.5
  }
]

I need collision cross section in nitrogen for every entry listed below, if you could help.
1. CC(C)(C)c1ccc(O)cc1 [4-(1,1-Dimethylethyl)phenol]
2. C[C@H]1O[C@H](O[C@H]2[C@H](O)[C@@H](O)[C@@H](O)[C@H](O)[C@@H]2O)[C@@H](N)C[C@@H]1NC(=N)C(=O)O [Kasugamycin hydrochloride]
3. COc1cc(CNC(=O)CCCC/C=C/C(C)C)ccc1O [Capsaicin]
4. CCC(C(=O)NC(N)=O)c1ccccc1 (stereo not given) [Ethylphenylacetylurea]
5. Nc1ccc(S(=O)(=O)Nc2nccs2)cc1 [Sulfathiazole]
6. O=C(O)C(F)(F)C(F)(F)C(F)(F)C(F)(F)C(F)(F)C(F)(F)C(F)(F)C(F)(F)C(F)(F)C(F)(F)F [Perfluoroundecanoic acid]
7. Oc1c(Br)cc(Br)cc1Br [2,4,6-Tribromophenol]

Ans:
[139.5, 178, 177.8, 151, 154.3, 183.9, 135.2]

I need collision cross section in nitrogen for every entry listed below, if you could help.
1. Oc1ccc2cc(SSc3ccc4cc(O)ccc4c3)ccc2c1 [6-Hydroxy-2-naphthyl disulfide]
2. CCc1ccccc1O [2-Ethylphenol]
3. NS(=O)(=O)C(F)(F)C(F)(F)C(F)(F)C(F)(F)C(F)(F)C(F)(F)C(F)(F)C(F)(F)F [Perfluorooctanesulfonamide]
4. C[C@]1(Cn2ccnn2)[C@H](C(=O)O)N2C(=O)C[C@H]2S1(=O)=O [Tazobactam sodium]
5. CC(C)(c1cc(Cl)c(O)c(Cl)c1)c1cc(Cl)c(O)c(Cl)c1 [2,2',6,6'-Tetrachlorobisphenol A]
6. CC(C)(c1ccc(O)cc1)c1ccc(C(C)(C)c2ccc(O)cc2)cc1 [Bisphenol P]
7. CCC1(c2ccccc2)C(=O)N=C(O)NC1=O (stereo not given) [Phenobarbital sodium]
8. O=[N+]([O-])O [Magnesium dinitrate hexahydrate]

Ans:
[185.8, 124.3, 170.4, 157.7, 184.3, 180.1, 150.4, 104.1]

I need collision cross section in nitrogen for every entry listed below, if you could help.
1. O=C1CCCC(=O)C1 [1,3-Cyclohexanedione]
2. N#Cc1ccccc1N [2-Aminobenzonitrile]
3. CCCCC(CC)C(=O)O (stereo not given) [2-Ethylhexanoic acid]
4. Nc1ccccc1[N+](=O)[O-] [2-Nitrobenzenamine]
5. NCC1(Cc2noc(=O)[nH]2)CCCCC1

Ans:
1: 121.3; 2: 118; 3: 138.1; 4: 121.6; 5: 151.4

I need collision cross section in nitrogen for every entry listed below, if you could help.
1. COc1cnc(OC)n2nc(NS(=O)(=O)c3c(OCC(F)F)cccc3C(F)(F)F)nc12 [Penoxsulam]
2. O=C(O)CCCC[C@@H]1SC[C@H]2NC(=O)N[C@@H]12 [Biotin]

Ans:
1. 193.3
2. 155.5

Taken from the supplement of paper PMC12317010.
